biological target: Chymase, from human skin (Homo sapiens); assay: Enzymatic assay, chymase
Sequence (P23946 22-247): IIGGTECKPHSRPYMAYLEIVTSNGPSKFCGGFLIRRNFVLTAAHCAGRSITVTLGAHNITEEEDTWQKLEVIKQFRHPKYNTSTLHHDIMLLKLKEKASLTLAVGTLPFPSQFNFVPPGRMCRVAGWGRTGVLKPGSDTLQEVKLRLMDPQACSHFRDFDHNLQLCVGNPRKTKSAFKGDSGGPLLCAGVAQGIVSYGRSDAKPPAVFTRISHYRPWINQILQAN
Where a SMILES comes first, the peptide text is derived from it.
quantity.name: Chymase at 100 μM % (%)
Numbers only, in %.

Check Chymase, from human skin (Homo sapiens) data and give Chymase at 100 μM % for CCCC[C@@H]1NC(=O)[C@@H]2CCCN2C(=O)[C@@H]2CCCN2C(=O)[C@H](CC(=O)O)NC(=O)[C@H](CO)NC(=O)[C@H](CCCCN)NC(=O)[C@H]([C@@H](C)O)NC(=O)[C@@H]2CSSC[C@H](NC1=O)C(=O)N[C@@H](CO)C(=O)N1CCC[C@@H]1C(=O)N1CCC[C@H]1C(=O)N[C@@H](Cc1ccccc1)C(=O)N2 [Ex. 53] (HELM PEPTIDE1{F.C.T.K.S.D.P.P.[Nle].C.S.[dP].P}$PEPTIDE1,PEPTIDE1,2:R3-10:R3|PEPTIDE1,PEPTIDE1,1:R1-13:R2$$$V2.0) .
12.7

###

test system: human red blood cells (hRBC); test: Hemolysis
Where a SMILES comes first, the peptide text is derived from it.
quantity.name: Hemolysis at 100 μM % (%)
One number for each entry, in %.

CC[C@H](C)[C@@H]1NC(=O)[C@@H]2CCCN2C(=O)[C@@H]2CCCN2C(=O)[C@H](CC(=O)O)NC(=O)[C@H](CO)NC(=O)[C@H](CCCCN)NC(=O)[C@H]([C@@H](C)O)NC(=O)[C@@H]2CSSC[C@H](NC1=O)C(=O)N[C@@H](Cc1ccc(O)cc1)C(=O)N1CCC[C@@H]1C(=O)N1CCC[C@H]1C(=O)N[C@@H](C1CCCCC1)C(=O)N2 [Ex. 40] (HELM PEPTIDE1{[O=C([C@@H](N[*:1])C1CCCCC1)[*:2]].C.T.K.S.D.P.P.I.C.Y.[dP].P}$PEPTIDE1,PEPTIDE1,2:R3-10:R3|PEPTIDE1,PEPTIDE1,1:R1-13:R2$$$V2.0)
0.1

Turning now to a further record.
Assign Hemolysis at 100 μM % to the following record: CCCC[C@@H]1NC(=O)[C@H]([C@@H](C)O)NC(=O)[C@@H]2CSSC[C@H](NC(=O)[C@H]([C@@H](C)CC)NC(=O)[C@@H]3CCCN3C(=O)[C@@H]3CCCN3C(=O)[C@H](CC(=O)O)NC(=O)[C@H](CO)NC1=O)C(=O)N[C@@H](Cc1ccc(O)cc1)C(=O)N1CCC[C@@H]1C(=O)N1CCC[C@H]1C(=O)N[C@@H](Cc1ccccc1)C(=O)N2 [Ex. 23] (HELM PEPTIDE1{F.C.T.[Nle].S.D.P.P.I.C.Y.[dP].P}$PEPTIDE1,PEPTIDE1,2:R3-10:R3|PEPTIDE1,PEPTIDE1,1:R1-13:R2$$$V2.0)
0

###

target: Trypsin, from human pancreas (Homo sapiens); experiment: Enzymatic assay, trypsin; details: at 100 μM
Where a SMILES comes first, the peptide text is derived from it.
quantity.name: Trypsin at 100 μM % (%)
Numbers only, in %.

As a guide, the following entries are already answered.
CCCC[C@@H]1NC(=O)[C@@H]2CCCN2C(=O)[C@@H]2CCCN2C(=O)[C@H](CC(=O)O)NC(=O)[C@H](CO)NC(=O)[C@H](CCCCN)NC(=O)[C@H]([C@@H](C)O)NC(=O)[C@@H]2CSSC[C@H](NC1=O)C(=O)N[C@@H](CCCNC(=N)N)C(=O)N1CCC[C@@H]1C(=O)N1CCC[C@H]1C(=O)N[C@@H]([C@@H](C)CC)C(=O)N2 [Ex. 19] (HELM PEPTIDE1{I.C.T.K.S.D.P.P.[Nle].C.R.[dP].P}$PEPTIDE1,PEPTIDE1,2:R3-10:R3|PEPTIDE1,PEPTIDE1,1:R1-13:R2$$$V2.0)
94.0
CC[C@H](C)[C@@H]1NC(=O)[C@@H]2CCCN2C(=O)[C@H]2CCCN2C(=O)[C@H](CCCNC(=N)N)NC(=O)[C@@H]2CSSC[C@H](NC1=O)C(=O)N[C@@H]([C@@H](C)O)C(=O)N[C@@H](CCCCN)C(=O)N[C@@H](CO)C(=O)N[C@@H](CC(=O)O)C(=O)N1CCC[C@H]1C(=O)N1CCC[C@H]1C(=O)N[C@@H](CCC(N)=O)C(=O)N2 [Ex. 55] (HELM PEPTIDE1{I.C.T.K.S.D.P.P.Q.C.R.[dP].P}$PEPTIDE1,PEPTIDE1,2:R3-10:R3|PEPTIDE1,PEPTIDE1,1:R1-13:R2$$$V2.0)
90
CC[C@H](C)[C@@H]1NC(=O)[C@@H]2CCCN2C(=O)[C@@H]2CCCN2C(=O)[C@H](CC(=O)O)NC(=O)[C@H](CO)NC(=O)[C@H](CCCCN)NC(=O)[C@H]([C@@H](C)O)NC(=O)[C@@H]2CSSC[C@H](NC1=O)C(=O)N[C@@H](CO)C(=O)N[C@H](C)C(=O)N[C@@H](CC(=O)O)C(=O)N[C@@H](Cc1ccccc1)C(=O)N2 [Ex. 68] (HELM PEPTIDE1{F.C.T.K.S.D.P.P.I.C.S.[dA].D}$PEPTIDE1,PEPTIDE1,2:R3-10:R3|PEPTIDE1,PEPTIDE1,1:R1-13:R2$$$V2.0)
84.2

Now for a further compound.
Check Trypsin, from human pancreas (Homo sapiens) data and give Trypsin at 100 μM % for CC[C@H](C)[C@@H]1NC(=O)[C@@H]2CCCN2C(=O)[C@@H]2CCCN2C(=O)[C@H](CC(=O)O)NC(=O)[C@H](CO)NC(=O)[C@H](CCCCN)NC(=O)[C@H]([C@@H](C)O)NC(=O)[C@@H]2CSSC[C@H](NC1=O)C(=O)N[C@@H](CC(N)=O)C(=O)N1CCC[C@@H]1C(=O)N1CCC[C@H]1C(=O)N[C@@H](Cc1ccccc1)C(=O)N2 [Ex. 3] (HELM PEPTIDE1{F.C.T.K.S.D.P.P.I.C.N.[dP].P}$PEPTIDE1,PEPTIDE1,2:R3-10:R3|PEPTIDE1,PEPTIDE1,1:R1-13:R2$$$V2.0) .
92

###

target: Chymotrypsin, from human pancreas (Homo sapiens); test: Enzymatic assay, chymotrypsin; details: at 100 μM
Sequence (P17538 19-263): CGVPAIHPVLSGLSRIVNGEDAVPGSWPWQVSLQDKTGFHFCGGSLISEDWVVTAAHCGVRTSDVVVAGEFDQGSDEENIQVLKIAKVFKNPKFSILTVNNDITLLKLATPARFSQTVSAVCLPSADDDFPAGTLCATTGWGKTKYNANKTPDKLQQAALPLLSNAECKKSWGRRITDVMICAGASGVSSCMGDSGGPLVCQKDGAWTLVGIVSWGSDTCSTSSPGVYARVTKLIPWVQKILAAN
Where a SMILES comes first, the peptide text is derived from it.
quantity.name: Chymotrypsin at 100 μM % (%)
Give bare numbers, in %.

Look up and report measured Chymotrypsin at 100 μM % for this entry: CC[C@H](C)[C@@H]1NC(=O)[C@@H]2CCCN2C(=O)[C@@H]2CCCN2C(=O)[C@H](CC(=O)O)NC(=O)[C@H](CO)NC(=O)[C@H](CCCCN)NC(=O)[C@H]([C@@H](C)O)NC(=O)[C@H](CCC(=O)O)NC(=O)[C@H](CCCNC(=N)N)NC(=O)[C@@H]2CCCN2C(=O)[C@H]2CCCN2C(=O)[C@H](Cc2ccccc2)NC(=O)[C@H](CCCNC(=N)N)NC1=O [Ex. 7] (HELM PEPTIDE1{R.E.T.K.S.D.P.P.I.R.F.[dP].P}$PEPTIDE1,PEPTIDE1,1:R1-13:R2$$$V2.0)
12

###

target: Elastase from human neutrophils (Homo sapiens); assay: Enzymatic assay, elastase; conditions: Elastase IC50
Sequence (P08246 30-267): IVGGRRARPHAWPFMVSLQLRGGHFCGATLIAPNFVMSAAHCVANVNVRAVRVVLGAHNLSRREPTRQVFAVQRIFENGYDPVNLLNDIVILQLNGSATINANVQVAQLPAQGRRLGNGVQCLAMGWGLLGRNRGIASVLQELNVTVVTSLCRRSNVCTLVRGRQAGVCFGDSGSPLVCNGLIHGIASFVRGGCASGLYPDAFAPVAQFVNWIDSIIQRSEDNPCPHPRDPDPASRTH
Where a SMILES comes first, the peptide text is derived from it.
Exercise: for every item that follows, state its recorded IC50.

In the examples that follow, each entry is paired with its recorded IC50.
CC[C@H](C)[C@@H]1NC(=O)[C@H](CO)NC(=O)[C@H](C)NC(=O)[C@H]([C@@H](C)O)NC(=O)[C@H](CCC(=O)O)NC(=O)[C@H](CCc2ccccc2)NC(=O)[C@@H]2CCCN2C(=O)[C@H]2CCCN2C(=O)[C@H](Cc2ccc(O)cc2)NC(=O)[C@H](CCCCN)NC(=O)[C@H](CCC(N)=O)NC(=O)[C@@H]2CCCN2C(=O)[C@@H]2CCCN2C1=O [Ex. 132] (HELM PEPTIDE1{[O=C([C@H](CCc1ccccc1)N[*:1])[*:2]].E.T.A.S.I.P.P.Q.K.Y.[dP].P}$PEPTIDE1,PEPTIDE1,1:R1-13:R2$$$V2.0)
0.026 µM
CC[C@H](C)[C@@H]1NC(=O)[C@@H]2CCCN2C(=O)[C@@H]2CCCN2C(=O)[C@H](CC(=O)O)NC(=O)[C@H](CO)NC(=O)[C@H](CCCCN)NC(=O)[C@H]([C@@H](C)O)NC(=O)[C@@H]2CSSC[C@H](NC1=O)C(=O)N[C@@H](Cc1ccc(O)cc1)C(=O)N1CCC[C@@H]1C(=O)N1CCC[C@H]1C(=O)N[C@@H](Cc1ccc(O)cc1)C(=O)N2 [Ex. 26] (HELM PEPTIDE1{Y.C.T.K.S.D.P.P.I.C.Y.[dP].P}$PEPTIDE1,PEPTIDE1,2:R3-10:R3|PEPTIDE1,PEPTIDE1,1:R1-13:R2$$$V2.0)
> 100 µM
CCCC[C@@H]1NC(=O)[C@@H]2CCCN2C(=O)[C@@H](Cc2ccccc2)NC(=O)[C@H](Cc2ccc(O)cc2)NC(=O)[C@@H]2CSSC[C@H](NC1=O)C(=O)N[C@@H]([C@@H](C)O)C(=O)N[C@@H](C)C(=O)N[C@@H](CO)C(=O)N[C@@H]([C@@H](C)CC)C(=O)N1CCC[C@H]1C(=O)N1CCC[C@H]1C(=O)N[C@@H](CCC(N)=O)C(=O)N2 [Ex. 116] (HELM PEPTIDE1{A.S.I.P.P.Q.C.Y.[dF].P.[Nle].C.T}$PEPTIDE1,PEPTIDE1,7:R3-12:R3|PEPTIDE1,PEPTIDE1,1:R1-13:R2$$$V2.0)
0.046 µM
CCCC[C@@H]1NC(=O)[C@@H]2CCCN2C(=O)[C@H]2CCCN2C(=O)[C@H](Cc2ccc(O)cc2)NC(=O)[C@@H]2CSSC[C@H](NC1=O)C(=O)N[C@@H]([C@@H](C)O)C(=O)N[C@@H](C)C(=O)N[C@@H](CO)C(=O)N[C@@H](CC(C)C)C(=O)N1CCC[C@H]1C(=O)N1CCC[C@H]1C(=O)N[C@@H](Cc1ccc(O)cc1)C(=O)N2 [Ex. 113] (HELM PEPTIDE1{[Nle].C.T.A.S.L.P.P.Y.C.Y.[dP].P}$PEPTIDE1,PEPTIDE1,2:R3-10:R3|PEPTIDE1,PEPTIDE1,1:R1-13:R2$$$V2.0)
0.035 µM
CCCCCCCC[C@@H]1NC(=O)[C@@H]2CCCN2C(=O)[C@H]2CCCN2C(=O)[C@H](CCC(N)=O)NC(=O)[C@@H]2CSSC[C@H](NC1=O)C(=O)N[C@@H]([C@@H](C)O)C(=O)N[C@@H](C)C(=O)N[C@@H](CO)C(=O)N[C@@H](CC1CCCCC1)C(=O)N1CCC[C@H]1C(=O)N1CCC[C@H]1C(=O)N[C@@H](CCC(N)=O)C(=O)N2 [Ex. 159] (HELM PEPTIDE1{[CCCCCCCC[C@H](N[*:1])C(=O)[*:2]].C.T.A.S.[Cha].P.P.Q.C.Q.[dP].P}$PEPTIDE1,PEPTIDE1,2:R3-10:R3|PEPTIDE1,PEPTIDE1,1:R1-13:R2$$$V2.0)
0.007 µM

Dear colleague, could you please provide IC50 for the molecules listed below?
1. CCCCCCCC[C@@H]1NC(=O)[C@@H]2CCCN2C(=O)[C@H]2CCCN2C(=O)[C@H](Cc2ccccc2)NC(=O)[C@@H]2CSSC[C@H](NC1=O)C(=O)N[C@@H]([C@@H](C)O)C(=O)N[C@@H](C)C(=O)N[C@@H](CO)C(=O)N[C@@H](CC1CCCCC1)C(=O)N1CCC[C@H]1C(=O)N1CCC[C@H]1C(=O)N[C@@H](CCC(N)=O)C(=O)N2 [Ex. 157] (HELM PEPTIDE1{[CCCCCCCC[C@H](N[*:1])C(=O)[*:2]].C.T.A.S.[Cha].P.P.Q.C.F.[dP].P}$PEPTIDE1,PEPTIDE1,2:R3-10:R3|PEPTIDE1,PEPTIDE1,1:R1-13:R2$$$V2.0)
2. CCCC[C@@H]1NC(=O)[C@@H]2CCCN2C(=O)[C@H]2CCCN2C(=O)[C@H](CCC(N)=O)NC(=O)[C@@H]2CSSC[C@H](NC1=O)C(=O)N[C@@H]([C@@H](C)O)C(=O)N[C@@H](C)C(=O)N[C@@H](CO)C(=O)N[C@@H]([C@@H](C)CC)C(=O)N1CCC[C@H]1C(=O)N1CCC[C@H]1C(=O)N[C@@H](CCC(N)=O)C(=O)N2 [Ex. 91] (HELM PEPTIDE1{[Nle].C.T.A.S.I.P.P.Q.C.Q.[dP].P}$PEPTIDE1,PEPTIDE1,2:R3-10:R3|PEPTIDE1,PEPTIDE1,1:R1-13:R2$$$V2.0)
3. C[C@@H](O)[C@@H]1NC(=O)[C@@H]2CSSC[C@H](NC(=O)[C@H](CC3CCCCC3)NC(=O)[C@@H]3CCCN3C(=O)[C@@H]3CCCN3C(=O)[C@H](CC(=O)O)NC(=O)[C@H](CO)NC(=O)[C@H](CCCCN)NC1=O)C(=O)N[C@@H](CO)C(=O)N1CCC[C@@H]1C(=O)N1CCC[C@H]1C(=O)N[C@@H](Cc1ccccc1)C(=O)N2 [Ex. 16] (HELM PEPTIDE1{F.C.T.K.S.D.P.P.[Cha].C.S.[dP].P}$PEPTIDE1,PEPTIDE1,2:R3-10:R3|PEPTIDE1,PEPTIDE1,1:R1-13:R2$$$V2.0)

1: 0.007 µM; 2: 0.028 µM; 3: > 100 µM
